Reported increase in collagen synthesis (in the proteoglycan assay, dermal fibroblasts) by item:
Tested on: human dermal fibroblasts
Assay: Blyscan glycosaminoglycan assay, proteoglycan synthesis by dermal fibroblasts
Assay type: cell-based
Settings: non-hydroxylated peptides, 0.5 mg/ml, two weeks stimulation
Where no end group is shown, it is not given here.
reported_metric: increase in collagen synthesis (in the proteoglycan assay, dermal fibroblasts) (%)

- input_sequence: "GAPGKDGVRGL [SEQ ID No. 11, collagen peptide comprising 11 amino acids]"
  value: 18
- input_sequence: "GPPGPAGEKGAPGADGPAGAPGTPGPQGIAGQRGV [SEQ ID No. 16, collagen peptide comprising 35 amino acids]"
  value: 18
- input_sequence: "GAPGKDGVRGLTGPIGPPGPAGAPGDKGEAGPS [SEQ ID No. 2, collagen peptide comprising 33 amino acids]"
  value: 18
- input_sequence: "KGAPGADGPAGAPGTPGPQ [SEQ ID No. 15, collagen peptide comprising 19 amino acids]"
  value: 18
- input_sequence: "GAPGKDGVRGLTGPIGPPGPAGA [SEQ ID No. 12, collagen peptide comprising 23 amino acids]"
  value: 19
